# EXPERIMENTAL TARGET: T1, Human Siglec-9 mutant M8 (human, UniProt Q9Y336 18-463)
# T1 construct: Expressed on HEK293T cells; also called Mutant 8
# T1 sequence (Q9Y336 other isoform, or with tags, fused parts or gaps mutant): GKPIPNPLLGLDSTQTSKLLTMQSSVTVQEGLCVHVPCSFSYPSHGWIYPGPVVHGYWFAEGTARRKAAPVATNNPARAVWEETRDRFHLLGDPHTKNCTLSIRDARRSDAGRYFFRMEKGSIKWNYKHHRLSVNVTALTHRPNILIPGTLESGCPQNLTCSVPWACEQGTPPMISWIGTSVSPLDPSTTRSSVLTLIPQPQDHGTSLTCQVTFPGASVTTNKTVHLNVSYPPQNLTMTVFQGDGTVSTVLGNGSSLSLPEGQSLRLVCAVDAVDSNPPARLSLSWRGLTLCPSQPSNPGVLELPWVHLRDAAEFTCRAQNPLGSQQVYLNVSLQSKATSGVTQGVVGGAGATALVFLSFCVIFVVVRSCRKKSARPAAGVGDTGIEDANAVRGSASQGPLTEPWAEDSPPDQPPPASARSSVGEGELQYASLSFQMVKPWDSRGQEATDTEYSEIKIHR
# TEST METHOD NOTES: flow cytometry, HEK293T transfectants

BINDER	binding result
Fab.A (Fab of mAbA) (Fab, V domains shown) VH: QVQLQQPGAELVKPGSPVKLSCKASYFTFTSYWMHWVRQRPGQGLEWIGEINPSNGHTNYNEKFESKATLTVDRSSSTAYMQLSSLTSEDSAVFYCANGVESYDFDDALDYWGQGTSVTVSS VL: DIQMTQTTSSLSASLGDRVTISCRASQDINNYLNWYQQKPDGTIKLLIYYTSRLHSGVPSRFSGSGSGTDYSLTINNLEQEDIATYFCQQGNTLPFTFGGGTKLEIK	binds
mAbB (antibody, human IgG1, V domains shown) VH: QVQLQQPGAELVKPGASVKLSCKASVYTFTSYWMHWVKQRPGQGLEWIGEINPSNGHTNYNEKFKTKAKLTVDKSSSTAYMQLSSLTSEDSAVYFCANGVETYDFDDAMDYWGQGTSVTVSS VL: DIQMTQTTSSLSASLGDRVTISCRASQDINNYLNWYQQKPDGTVKLLIYFTSRLHSGVPSRFSGSGSGTDYSLTISNLEQEDIATYFCQQGDTFPFTFGGGTKLEIK	binds
mAbD (antibody, human IgG1, V domains shown) VH: QIQLVQSGPELKKPGETVKISCKASGYTFTDYSMHWVKQAPGKGLKWMGWIITETGEPTYADDFRGRFAFSLETSANTAYLQINNLKNEDTATYFCARDFDGYWGQGTTLTVSS VL: DILMTQSPASLSASVGETVTITCRASENIYSYLAWYQQKRGKSPQFLVYNAKTLTEGVPSRFRGSGSGTQFSLKINSLQPEDFGTYYCQHHYGFPWTFGGGTKLEIK	binds
